# SYSTEM_TESTED: nuclear factor-kappa B (NF-kB)-inducing kinase (NIK) (Homo sapiens)
# Construct: made in house; host or cells: baculovirus-infected insect cells
# Sequence (Q99558 whole entry): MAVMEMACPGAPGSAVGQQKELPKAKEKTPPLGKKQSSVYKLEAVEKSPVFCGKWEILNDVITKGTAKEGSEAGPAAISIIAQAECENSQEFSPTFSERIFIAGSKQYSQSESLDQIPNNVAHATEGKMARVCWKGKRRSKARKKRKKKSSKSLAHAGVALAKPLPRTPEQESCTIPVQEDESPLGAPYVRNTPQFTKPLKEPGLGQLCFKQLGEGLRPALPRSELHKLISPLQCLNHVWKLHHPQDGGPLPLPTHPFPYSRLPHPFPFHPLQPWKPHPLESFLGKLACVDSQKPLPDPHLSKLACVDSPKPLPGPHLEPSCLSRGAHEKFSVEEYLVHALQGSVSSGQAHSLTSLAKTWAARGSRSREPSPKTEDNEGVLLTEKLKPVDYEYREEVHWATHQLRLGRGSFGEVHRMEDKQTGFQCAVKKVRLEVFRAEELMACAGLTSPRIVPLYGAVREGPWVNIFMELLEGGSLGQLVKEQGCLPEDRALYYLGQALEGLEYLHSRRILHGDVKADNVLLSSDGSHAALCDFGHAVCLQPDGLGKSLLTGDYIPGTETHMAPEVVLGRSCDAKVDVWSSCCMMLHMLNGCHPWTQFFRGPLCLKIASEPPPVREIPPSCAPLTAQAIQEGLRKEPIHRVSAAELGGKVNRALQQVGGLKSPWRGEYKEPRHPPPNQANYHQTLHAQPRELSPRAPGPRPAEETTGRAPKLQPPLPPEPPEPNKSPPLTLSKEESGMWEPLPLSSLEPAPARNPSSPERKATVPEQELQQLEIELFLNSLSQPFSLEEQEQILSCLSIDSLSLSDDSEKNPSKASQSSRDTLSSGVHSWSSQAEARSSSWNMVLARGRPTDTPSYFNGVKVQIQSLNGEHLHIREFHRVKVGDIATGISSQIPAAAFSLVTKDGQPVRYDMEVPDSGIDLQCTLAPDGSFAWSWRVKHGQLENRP
# ASSAY_DETAILS: NIK Enzyme Inhibition Assay (Transcreener ADP assay)
# Assay type: biochemical
# TEST_SETTINGS: purified NIK 0.2-1 nM, 10 uM ATP, fluorescence polarization, Morrison's quadratic equation; read-out: inhibitory value (Ki) for NIK
PROPERTY_MEASURED: Ki (nM)

CC(C)(O)C#Cc1ccc2[nH]c(=O)n(-c3ccnc(N)n3)c2c1
49
Cc1nc([C@](C)(O)C#Cc2ccc3c(CF)nn(-c4ccnc(N)n4)c3c2)no1
0.5
CC(O)(C#Cc1ccc2c(C(=O)N3CC4CC4C3)nn(-c3ccnc(N)n3)c2c1)c1ncccn1 (stereo not shown)
5.28
Cc1nc([C@](C)(O)C#Cc2ccc3c(C(=O)N4CC(O)C4)nn(-c4nc(N)ncc4Cl)c3c2)no1
1

a. CNC(=O)c1nn(-c2ccnc(N)n2)c2cc(C#C[C@@](C)(O)c3cc(C)on3)ccc12
b. CC(C)(O)C#Cc1ccc2cnn(-c3nc(N)ncc3-c3cn[nH]c3)c2c1
c. Cc1nc(C(C)(O)C#Cc2ccc3c(C(=O)N(C)C)nn(-c4ccnc(N)n4)c3c2)no1 (stereo not shown)
Q: Please list the entries, largest Ki first. A complete answer lists every label in the requested sequence.
Result: b, c, a
(b: 70 nM, c: 2 nM, a: 1 nM)

---

# SYSTEM_TESTED: nuclear factor-kappa B (NF-kB)-inducing kinase (NIK) (Homo sapiens)
# Construct: made in house; host or cells: baculovirus-infected insect cells
# ASSAY_DETAILS: NIK Enzyme Inhibition Assay (Transcreener ADP assay)
# Type: biochemical
# TEST_SETTINGS: purified NIK 0.2-1 nM, 10 uM ATP, fluorescence polarization, Morrison's quadratic equation; read-out: inhibitory value (Ki) for NIK
PROPERTY_MEASURED: Ki (nM)

P. COc1ncccc1Nc1cc(-n2ncc3ccc(C#CC(C)(C)O)cc32)ncn1
Q. CC(C)(O)C#Cc1ccc2cnn(-c3cc(N)ncn3)c2c1
R. Cc1cc(C(C)(O)C#Cc2ccc3nc(OCCO)n(-c4ccnc(N)n4)c3c2)no1 (stereo not shown)
S. CC(O)(C#Cc1ccc2nc(OCC(F)(F)F)n(-c3ccnc(N)n3)c2c1)c1ncccn1 (stereo not shown)
Q: Rank the items in ascending order with respect to Ki. # answer = labels listed in requested order
Result: R, S, Q, P

---

# SYSTEM_TESTED: nuclear factor-kappa B (NF-kB)-inducing kinase (NIK) (Homo sapiens)
# Construct: made in house; host or cells: baculovirus-infected insect cells
# ASSAY_DETAILS: NIK Enzyme Inhibition Assay (Transcreener ADP assay)
# Format: biochemical
# TEST_SETTINGS: purified NIK 0.2-1 nM, 10 uM ATP, fluorescence polarization, Morrison's quadratic equation; read-out: inhibitory value (Ki) for NIK
pKi: −log10 of the molar value.
PROPERTY_MEASURED: pKi

Cc1nc2ccc(C#CC(C)(O)CO)cc2n1-c1ncnc(N)n1 (stereo not shown)
6.89
Cc1cc(C(C)(O)C#Cc2ccc3c(C(NC4CCCC4)C4CC4)nn(-c4ccnc(N)n4)c3c2)no1 (stereo not shown) [Example T1.1-85]
7.57
CC(O)(C#Cc1ccc2ncn(-c3ccnc(N)n3)c2c1)c1cn[nH]c1 (stereo not shown)
7.64
Nc1nccc(-n2nc(C(=O)N3CCOCC3)c3ccc(C#CC4(O)CCn5ccnc54)cc32)n1 (stereo not shown)
8.70
Cc1nn(-c2ccnc(N)n2)c2cc(C#CC(C)(O)c3c[nH]cn3)ccc12 (stereo not shown)
9.22

P. Cc1nc2ccc(C#CC3(O)CCCCC3)cc2n1-c1ncnc(N)n1
Q. Cc1nc2ccc(C#CC3(O)CCCOC3)cc2n1-c1ncnc(N)n1 (stereo not shown)
Q: Quick check, higher pKi between P and Q ? Lab note: record the label of whichever item you select.
Result: P

A. Cc1nc2ccc(C#CC(O)C3CC(O)C3)cc2n1-c1ncnc(N)n1 (stereo not shown)
B. CCOc1nc2ccc(C#CC(C)(C)O)cc2n1-c1ccnc(N)n1
C. CC(O)(C#Cc1ccc2nc(OCCO)n(-c3ccnc(N)n3)c2c1)c1ncccn1 (stereo not shown)
Q: List items by pKi in falling order. # format: label list in the order the request specifies
Result: C, B, A
(C: 8.22, B: 7.80, A: 5.80)

a. Cc1cc(C(C)(O)C#Cc2ccc3c(C)nn(-c4ccnc(N)n4)c3c2)no1 (stereo not shown)
b. Cc1cc(C(C)(O)C#Cc2ccc3c(C(=O)N4CCOCC4)nn(-c4ccnc(N)n4)c3c2)no1 (stereo not shown)
c. Cc1nn(-c2ccnc(N)n2)c2cc(C#CC(C)(O)c3cc(CF)on3)ccc12 (stereo not shown)
Q: Thanks in advance: please rank these 3 entries by pKi, highest to lowest. Present the labels in the sequence the task asks for.
Result: a, c, b
(a: 9.82, c: 9.00, b: 8.58)

I. CN(C)C(=O)c1nn(-c2ccnc(N)n2)c2cc(C#CC(C)(O)c3ncccn3)ccc12 (stereo not shown)
II. Cc1nc([C@](C)(O)C#Cc2ccc3c(C(=O)N4CCC(F)CC4)nn(-c4ccnc(N)n4)c3c2)no1
III. Cc1cc(C(C)(O)C#Cc2ccc3nc(C(=O)N4CCCC4)n(-c4ccnc(N)n4)c3c2)no1 (stereo not shown)
Q: List the 3 entries from lowest pKi to highest pKi value. Reply format: the labels, ordered as requested.
Result: III, I, II
(III: 6.47, I: 8.22, II: 9.00)

Source of measurements: patent US8901313B2
